Several publications report pIC50 on Serine/threonine-protein kinase ATR (Homo sapiens, UniProt Q13535); those values are gathered here.
Note on units: pIC50 is unitless, being -log10 of a concentration expressed in mol/L.

Cc1nn(C[C@@H]2CCCN2)c(C(F)(F)F)c1-c1cc(N2CCOC[C@H]2C)nc(-c2cc(F)cc3[nH]ccc23)n1 8.70
Cc1n[nH]c(C)c1-c1cc(N2CCOC[C@H]2C)nc(-c2ccnc3[nH]ccc23)n1 6.94
Cc1nnc(C)n1-c1cc(N2CCOC[C@H]2C)nc(-c2cccc3[nH]ccc23)n1 7.16
Cc1nn(C(C)C)c(C)c1-c1cc(N2CCOC[C@H]2C)nc(-c2ccnc3[nH]ccc23)n1 7.68
CC(=O)Nc1nc2ccccc2n1-c1nc(-c2c(C)nn(C3CCNCC3)c2C(F)(F)F)cc(N2CCOC[C@H]2C)n1 8.52
Cc1cc(Nc2nc(N3CCOC[C@H]3C)cc(C3(S(C)(=O)=O)CCOCC3)n2)[nH]n1 7.89

Attention now shifts to the item below.
Input: What is its pIC50 for Serine/threonine-protein kinase ATR (Homo sapiens, UniProt Q13535)? Entry: CNc1nc2cc(F)ccc2n1-c1nc(-c2c(C)nn(CS(C)(=O)=O)c2C(F)(F)F)cc(N2CCOC[C@H]2C)n1
Output: 7.54

----------
pIC50: −log10 of the molar value.
# merged literature set: pIC50 with Serine/threonine-protein kinase ATR (Homo sapiens, UniProt Q13535)
Rule: pIC50 of 8 or more gives satisfied; anything lower gives not satisfied.

Worked cases, answers included:
compound	qualitativeLabel
C[C@@H]1COCCN1c1cc(-c2c[nH]c3ncccc23)nc2c1ccn2S(C)(=O)=O	not satisfied
CNc1nc2cc(F)ccc2n1-c1nc(-c2c(C)nn(C3CCNCC3)c2C(F)(F)F)cc(N2CCOC[C@H]2C)n1	satisfied
C[C@@H]1COCCN1c1nc(-c2cccc3[nH]ccc23)nc2c1ccn2S(C)(=O)=O	satisfied
CCN(C)S(=O)(=O)c1ccc(OC)c(-c2cc(N3CCOC[C@H]3C)nc(-c3ccnc4[nH]ccc34)n2)c1	not satisfied
CCn1nccc1-c1cc(-c2cccc3[nH]ccc23)nc(N2CCOC[C@H]2C)n1	not satisfied

Input: Please check the record C[C@@H]1COCCN1c1cc(-c2ccnc3[nH]ccc23)nc(-c2cccc(S(C)(=O)=O)c2)n1 and state if its pIC50 is at or above 8.
Output: not satisfied

Input: Evaluate CC(C)n1c(=O)n(C)c2nnc3cc(F)c(-c4ccc(COCCN5CCCCC5)nc4)cc3c21 : pIC50 at minimum 8?
Output: not satisfied

Input: Please tell me: is the compound CNc1nc2ccccc2n1-c1nc(-c2c(C)nn(CC3CCCNC3)c2C(F)(F)F)cc(N2CCOC[C@H]2C)n1 (stereo partly shown) at or over 8 in terms of pIC50?
Output: satisfied

Input: Is reported pIC50 greater than or equal to 8 here: Cc1nn(C2CCNCC2)c(C(F)(F)F)c1-c1cc(C23CCOCC2C3)nc(-c2cc(F)cc3[nH]ccc23)n1 (stereo not shown)
Output: satisfied

Input: API: above_or_equal(metric=pIC50, cutoff=8) for item CNc1nc2ccccc2n1-c1nc(-c2c(C)nn(C3CCNCC3)c2C(F)(F)F)cc(C23CCOCC2C3)n1 (stereo not shown)
Output: satisfied

Input: Could you verify whether the entry Cc1nnn(C)c1-c1cc(N2CCOC[C@H]2C)nc(-c2ccnc3[nH]ccc23)n1 shows pIC50 of no less than 8?
Output: not satisfied

Input: Entry CNc1nc2ccccc2n1-c1nc(-c2c(C)nn(CS(C)(=O)=O)c2C(F)(F)F)cc(N2CCOC[C@H]2C)n1 : is its pIC50 no less than 8?
Output: not satisfied

Input: pIC50 >= 8 for C[C@@H]1COCCN1c1cc(-c2cccc3[nH]ccc23)nc(-c2ccnn2C)c1 ?
Output: not satisfied
